Tested on: dorsal ITC neurons
Method notes: STDP-induced DA-dependent LTD (DA-LTD) in dorsal ITC neurons, amygdala slice whole-cell recordings
Assay type: cell-based, mice
Measurement context: STDP protocol in presence of DA; antagonists in optimal concentrations selective for each receptor; naive mice

{"Structure smiles string": "COc1ccccc1N1CCN(CCCCNC(=O)c2ccc(-c3ccc(C(C)=O)cc3)cc2)CC1", "System under test": "dorsal ITC neurons", "effect on DA-LTD": "did not affect DA-LTD"}
{"Structure smiles string": "OC1(c2ccc(Cl)cc2)CCN(Cc2c[nH]c3ccccc23)CC1", "System under test": "dorsal ITC neurons", "effect on DA-LTD": "did not affect DA-LTD"}
